Observed pKi values for Carbonic anhydrase 9 (Homo sapiens) are listed in what follows.
pKi: −log10 of the molar value.
attributeMeasured: pKi

CCN1C(=O)/C(=N\NC(=O)c2ccc(S(N)(=O)=O)cc2)c2ccccc21 = 8.05
COc1ccc(C2=N/C(=C/c3ccc(O)cc3)C(=O)N2c2ccc(S(N)(=O)=O)cc2)cc1 = 7.91
COc1cc(/C=C2/N=C(c3ccccc3)N(c3ccc(S(N)(=O)=O)cc3)C2=O)cc(OC)c1OC = 7.17
NS(=O)(=O)c1ccc(N2C(=O)/C(=C\c3ccccc3)N=C2c2ccccc2)cc1 = 7.23
NS(=O)(=O)c1ccc(Nc2nc(NN3C(=O)/C(=C\c4ccc(Cl)cc4)N=C3c3ccccc3)cs2)cc1 = 7.53
O=Cc1ccccc1OCc1cn(CCCOc2ccc3ccc(=O)oc3c2)nn1 = 7.22
